# protocolNotes: protein stability index of a GFP-peptide fusion (GPS, HEK-293T) (PSI 1-6); higher = more stable;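 note: 24-mer peptide tiles fused after GFP, lentivirally expressed, FACS-sorted into six equal bins by GFP/DsRed ratio, decoded by Illumina sequencing, PSI is the read-weighted mean bin number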
# conditionContext: treatment: DMSO; c terminus: a fixed tail appended
Note to self: class labels come from recorded protein stability index, ranges listed here: LOW (below 3), MID (3 to below 4), HIGH (4 or more)

Request: Categorize the following entry: ELQGFWMDIGQPKDFLTGMCLFLQ [GMPPB]
Result: LOW

Request: Determine which band this sequence sits in: QFAISRELIRNIYNSFHKLRDRAE [SNX8]
Result: LOW

Request: State the class of the sequence shown: GSSSSSSSSINSPDRASGPEGSLS [FAM104A]
Result: HIGH

Request: Band of TRDLAGLRQFFKQLPSPPFLPAAG [CEBPD] ?
Result: LOW

Request: For the record LQQQNEDLKARIDQNTVVTRQLSE [MTUS2] , report the class its protein stability index corresponds to.
Result: HIGH

Request: # bin lookup: classify GIEPLYIKAEPASPDSPKGSSETE [ESRRA] by its protein stability index
Result: HIGH

Request: Consider GRTLIGFLRSIDQFANLVLHQTVE [LSM1] . To which protein stability index class does it belong?
Result: MID

Request: Band for DHGVPEHPTPFLAFLRRVKTCNPP [PTPRD] ?
Result: MID

====

# protocolNotes: protein stability index of a GFP-peptide fusion (GPS, HEK-293T) (PSI 1-6); higher = more stable
# conditionContext: treatment: DMSO; c terminus: a fixed tail appended
Label n if protein stability index falls below 3; label y in every other case.

[
  {
    "sequenceText": "GSLGPVPVLRFDALWQVLARDCFA [TRIM14]",
    "label": "n"
  },
  {
    "sequenceText": "HDGKPSEGSYRIHVLHHGTGKWYE [USP39]",
    "label": "n"
  }
]

Request: Does the sequence CSRTTGYQILTLEKDQEQVVMNLD [GMCL1] have recorded protein stability index that is 3 or more?
Result: y

Request: Determine whether measured protein stability index meets or exceeds 3 for SLNGVYPRMNEVYTRLGEMNNAVR [CEP70]
Result: n

Request: Quick check: does FLFQKPGDKYEHHSYMGMRGFCAF [POMT2] have protein stability index greater than or equal to 3?
Result: n

Request: # check: protein stability index of LSPALDLQAESPPVDPDSQADTVH [DNAAF3] is greater than or equal to 3
Result: y

Request: Please tell me: is the sequence KLQREMERREALCRQLSESESSLE [CCDC6] at or over 3 in terms of protein stability index?
Result: y

Request: Check the entry VPIGASIYVIGDLDTGTNYDYVRE [GAN] : does protein stability index equal or exceed 3?
Result: n

Request: Does LLKQGYNKTLLRLRLRKERVSDVQ [PKD2L1] have a reported protein stability index of at least 3?
Result: n

Request: Does protein stability index meet or surpass 3 for CCEVETIRRAYPDANLLNDRVLRA [CCND1] ?
Result: n

Request: Answer whether protein stability index of FKKQIWLLFEYPESSSPARGIAIV [KCNA4] is greater than or equal to 3.
Result: n

Request: Evaluate EKLKEKLKMKEREEAWVKIENLAK [PPP2R5C] : protein stability index at minimum 3?
Result: n

Request: Determine whether measured protein stability index meets or exceeds 3 for GGLLTGNEKITMQNLNDRLASYLE [KRT13]
Result: y

Request: State whether the measured protein stability index reaches 3, counting equality as reaching it, for TPNSKYVKLNVGGSLHYTTLRTLT [KCTD13]
Result: n

Request: For this sequence, is measured protein stability index 3 or higher? CILVEMHTGEPLFSGSNEVDQMNR [DYRK1B]
Result: n

====

Kindly supply the reported protein stability index values for the records listed here.
# protocolNotes: protein stability index of a GFP-peptide fusion (GPS, HEK-293T) (PSI 1-6); higher = more stable
# conditionContext: treatment: MLN4924 1 uM, 8 h; c terminus: a fixed tail appended

Example results:
[
  {
    "sequenceText": "HFRPRFHPLPTVIIVNLLWFIHLV [TMEM192]",
    "protein stability index": 2.82
  },
  {
    "sequenceText": "FSDIPSPYLRGTIKMMQAVRQAFQ [GFOD1]",
    "protein stability index": 2.17
  },
  {
    "sequenceText": "SPFSPGLFHRLDEDWDSALFAELG [ATF6]",
    "protein stability index": 2.44
  }
]

Answer for every listed entry: what is its protein stability index? The entries follow.
1. RCFWLGMEGLETAEGSNSESSDDD [SDE2]
2. ERRHREEKERRKKQQWEIMHKHNE [RSPH3]
3. EEFLSAMQSARGPTPSSPLPSVPV [PLEKHN1]
4. RVAEVSRVRVELQEQNGRLQAELA [LRRC45]
5. KRRGPQRSVDVVVSSVFLLTLSIA [PHTF1]

Result:
1. 5.09
2. 4.65
3. 4.14
4. 4.19
5. 2.33

Go through the items and report each one's protein stability index.
1. LKPTLTIIKTEKVDLELFPSPDME [ETS1]
2. EALVNRLWKRMDKLEAEKRILQEK [CCDC6]
3. SPEVLRKDPYGKPVDLWACGVILY [CAMK2A]
4. LGVCASGLLIYRDRLRINRFAWPK [EPB41L3]
5. YTNSAGVPSLNAALMHTLQRHRDI [GOSR1]
6. LLVSLVTTVVVFVASMVLGECRQM [CLCN6]
7. TTALLHYQLPQMPDVVVRSFMTWL [MED27]
8. TDKVGTEAAFHPIEEYMVHVEEHF [FUT8]

Result:
3.21
3.6
2.49
2.4
2.92
3
2.62
4.31

Take each entry in turn and give its protein stability index.
1. AFTMEQVRTLEGVFQHHQYLSPLE [VENTX]
2. QALMLPPGSFWGLCQVAQEALASA [VENTX]
3. AKDEDQWTALHFAAQNGDESSTRL [RIPK4]
4. EPTETLLSEKEINAREESLVEELS [BCL2L13]

Result:
2.28
2.18
5.09
5.55

Hi team, please reply with protein stability index for each item in this list.
1. EARICRLLKHSNIVRLHDSISEEG [CAMK2B]
2. PCPLGEPKTQACSGSESPSDSGKD [MYCL]
3. KDAPCYESDTDIYETVAAATSEST [DRICH1]
4. GGLQHRVTAKTAPDVLRTKPAFIG [PTPRD]
5. YVIVSGAQRKEERWDMADNEQVLT [YJU2B]

Result:
3.46
5.41
5.38
3.07
3.19

Here are 2 sequences. What values of protein stability index were reported for them?
1. FWLQNSSPSSDRVSAIIWEGNECK [PHTF1]
2. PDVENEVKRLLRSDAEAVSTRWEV [TAF7L]

Result:
1: 3.07; 2: 3.76

====

# protocolNotes: protein stability index of a GFP-peptide fusion (GPS, HEK-293T) (PSI 1-6); higher = more stable
# conditionContext: treatment: DMSO; c terminus: a fixed tail appended
For each record, write down the corresponding protein stability index.
Numbers only.

[
  {
    "sequenceText": "ETAEEVSARIVQVVTAEAVAVLKG [MAP2]",
    "protein stability index": 3.36
  },
  {
    "sequenceText": "DWGRTALHYAAASDMDRNKTILGN [ANKRD44]",
    "protein stability index": 3.35
  },
  {
    "sequenceText": "RLVKEGRFVPSNPIGILTTSYCEL [PPTC7]",
    "protein stability index": 2.39
  },
  {
    "sequenceText": "PTVKDLIGGFTALHYAAMHGRARI [ASB7]",
    "protein stability index": 2.56
  },
  {
    "sequenceText": "EEKADVLARGPLNQTALHLAAAHG [RIPK4]",
    "protein stability index": 4.5
  }
]

Give me protein stability index for each of these sequences, listed below.
1. SPFSPGLFHRLDEDWDSALFAELG [ATF6]
2. NQRAMDLYKALGAQDLTEAEGWHF [SAT2]
3. DKKKELQELNELFKPVVAAQKISK [ZC3H15]
4. QALMLPPGSFWGLCQVAQEALASA [VENTX]
5. SVDEQNALREVYAHAVLGQHSHVV [WEE1]
6. MMELGSRSRGASQKKQKLEQKAAG [FATE1]
7. KNERLWLLDDSKTWWRVRNAANRT [NCK2]

Result:
1. 2.6
2. 3.28
3. 4.39
4. 2.04
5. 3.42
6. 4.76
7. 2.31

List protein stability index for every entry below, keeping the order given.
1. VVNSHSLSLLGKLTISAAFNIVYI [SLC22A15]
2. DSSMILTVPGQALACGSNRFNKLG [NEK8]

Result:
3.07
3.29
